- tested system: MS2 coat protein (MS2 CP) (bacteriophage MS2, UniProt P03612 P03612:2-130, V75E;A81G)
- test protocol: filter; binds better than natural MS2 site
- condition context: chain copies: 2 (dimer, stated); hairpin

{"columns": ["binder", "binding result"],
 "data": [
  ["pheT isolate 2 (ssRNA) RNA: GGGAAAGCCCACGCCCUUCGCUUCAGUACCGUCGAGCAGCACCAGCGUUUCGCCACCGAACUGCCGCACC", "binds"],
  ["o356 isolate 3 (ssRNA) RNA: GGGAAAGCCCACGCCAAUGUUCCACCAGCAGGGGAAAUGAUGUUGUUCUGGCUACCGAACUGCCGCACC", "binds"],
  ["ygiI isolate 4 (ssRNA) RNA: GGGAAAGCCCACGCCUAGGAGAGCGUUAACAACAGCAUCAGCGUUGAAGUGACGGAGGUACCGAACUGCCGCACC", "binds"],
  ["isolate 7 (ssRNA) RNA: GGGAAAGCCCACGCCAGUAAUUACGCCAUGAACACAGGCAUAAAGAAGUACAUAUGGUACCGAACUGCCGCACC", "binds"],
  ["mreD isolate 5 (ssRNA) RNA: GGGAAAGCCCACGCCUGAUUUGCAGCAACAGCGCAAUGAGGAAAGAGAGCCAGAUUACCCACCGAACUGCCGCACC", "binds"]
]}
